assay: UV-VIS absorption and fluorescence emission spectra; type: physicochemical; settings: 0.1M phosphate buffer (1x PBS for 7d5); ± 1 nm error
Assay metric: Maximum emission wavelength (λmax (em), nm)
Answers are plain numbers, in nm.

Examples with answers:
{"columns": ["Molecule", "Unit descriptor", "Value observed"],
 "data": [
  ["O=C(NCC(O)C[n+]1cc(CC(O)(P(=O)(O)O)P(=O)(O)O)n2ccccc21)c1ccc(-c2c3ccc(=O)cc-3oc3cc(O)ccc23)c(C(=O)O)c1 (stereo not shown)", "nm", 522],
  ["O=C(NCC(O)C[n+]1ccn(CC(O)(P(=O)(O)O)P(=O)(O)O)c1)c1ccc(-c2c3ccc(=O)cc-3oc3cc(O)ccc23)c(C(=O)O)c1 (stereo not shown)", "nm", 521],
  ["CCN(CC)c1ccc2c(-c3ccc(S(=O)(=O)NCCCCCC(=O)NCC(O)C[n+]4cccc(CC(O)(C(=O)O)P(=O)(O)O)c4)cc3S(=O)(=O)O)c3ccc(=[N+](CC)CC)cc-3oc2c1 (stereo not shown)", "nm", 589],
  ["CCN(CC)c1ccc2c(-c3ccc(S(=O)(=O)NCCCCCC(=O)NCC(O)C[n+]4cccc(CC(P(=O)(O)O)P(=O)(O)O)c4)cc3S(=O)(=O)O)c3ccc(=[N+](CC)CC)cc-3oc2c1 (stereo not shown)", "nm", 589],
  ["CC1(C)C(/C=C/C2=C(Oc3ccc(S(=O)(=O)O)cc3)C(=C/C=C3/N(CCCCS(=O)(=O)[O-])c4ccc(S(=O)(=O)[O-])cc4C3(C)C)/CCC2)=[N+](CCCCCC(=O)NCC(O)C[n+]2ccn(CC(O)(P(=O)(O)O)P(=O)(O)O)c2)c2ccc(S(=O)(=O)O)cc21 (stereo not shown) [Compound 800CW-ZOL]", "nm", 789],
  ["O=C(NCC(O)C[n+]1ccn(CC(O)(P(=O)(O)O)P(=O)(O)O)c1)c1ccc(C(=O)O)c(-c2c3ccc(=O)cc-3oc3cc(O)ccc23)c1 (stereo not shown)", "nm", 516]
]}

Count: 4. Required value per item: Maximum emission wavelength (λmax (em), nm).
1. CC1(C)C(C=CC=CC=C2N(CCCS(=O)(=O)O)c3ccc(S(=O)(=O)O)cc3C2(C)CCCCCC(=O)NCC(O)C[n+]2cccc(CC(O)(P(=O)(O)O)P(=O)(O)O)c2)=[N+](CCCS(=O)(=O)O)c2ccc(S(=O)(=O)O)cc21 (stereo not shown)
2. O=C(NCC(O)C[n+]1cc(CC(O)(C(=O)O)P(=O)(O)O)n2ccccc21)c1ccc(C(=O)O)c(-c2c3ccc(=O)cc-3oc3cc(O)ccc23)c1 (stereo not shown)
3. O=C(NCC(O)C[n+]1cc(CC(O)(C(=O)O)P(=O)(O)O)n2ccccc21)c1ccc(-c2c3ccc(=O)cc-3oc3cc(O)ccc23)c(C(=O)O)c1 (stereo not shown)
4. CC1(C)C(C=CC=CC=C2N(CCCS(=O)(=O)O)c3ccc(S(=O)(=O)O)cc3C2(C)CCCCCC(=O)NCC(O)C[n+]2cccc(CC(O)(C(=O)O)P(=O)(O)O)c2)=[N+](CCCS(=O)(=O)O)c2ccc(S(=O)(=O)O)cc21 (stereo not shown)

[666, 517, 522, 666]

Count: 3. Required value per item: Maximum emission wavelength (λmax (em), nm).
1. CN1/C(=C/C=C/C=C/C2=[N+](CCCCCC(=O)NCC(O)C[n+]3ccn(CC(O)(P(=O)(O)O)P(=O)(O)O)c3)c3ccc(S(=O)(=O)[O-])cc3C2(C)C)C(C)(C)c2cc(S(=O)(=O)[O-])ccc21 (stereo not shown)
2. CCN(CC)c1ccc2c(-c3ccc(S(=O)(=O)NCCCCCC(=O)NCC(O)C[n+]4cccc(CC(O)(P(=O)(O)O)P(=O)(O)O)c4)cc3S(=O)(=O)O)c3ccc(=[N+](CC)CC)cc-3oc2c1 (stereo not shown)
3. O=C(NCC(O)C[n+]1cc(CC(O)(P(=O)(O)O)P(=O)(O)O)n2ccccc21)c1ccc(C(=O)O)c(-c2c3ccc(=O)cc-3oc3cc(O)ccc23)c1 (stereo not shown)

663
589
518
